- Tested Target: Recombinant Cat D (Homo sapiens (Human), UniProt P07339)
- Sequence (P07339 65-412): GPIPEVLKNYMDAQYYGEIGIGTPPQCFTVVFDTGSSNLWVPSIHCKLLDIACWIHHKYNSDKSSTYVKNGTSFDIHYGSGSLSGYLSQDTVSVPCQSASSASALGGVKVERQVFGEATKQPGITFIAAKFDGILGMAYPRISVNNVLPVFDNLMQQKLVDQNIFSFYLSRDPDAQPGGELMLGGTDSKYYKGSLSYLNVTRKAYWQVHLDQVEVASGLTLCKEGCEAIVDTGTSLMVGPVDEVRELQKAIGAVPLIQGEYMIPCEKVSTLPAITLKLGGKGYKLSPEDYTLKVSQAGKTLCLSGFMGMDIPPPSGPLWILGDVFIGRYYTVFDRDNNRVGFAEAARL
- Assay Remarks: In vitro enzymatic Cathepsin D (Cat D) FRET assay
- Format: biochemical
- Cond: Cathepsin D FRET enzyme assay; read-out: IC50 IP (μM) CatD
Experimental Readout: IC50 (µM)

Consider the worked cases shown below.
1) COC[C@]12C[C@H]1[C@@](C)(c1cc(Nc3ncnc4cc(Cl)cnc34)cc(F)c1F)N=C(N)S2	213
2) C[C@]1(c2cc(NC(=O)c3ccc(C#N)cn3)cc(F)c2F)N=C(N)S[C@H]2C[C@H]21	797

[A] N#Cc1cnc2c(Nc3cc(F)c(F)c([C@@]4(CF)N=C(N)S[C@@H]5C[C@@H]54)c3)nccc2c1
[B] C#CCOc1cnc(C(=O)Nc2cc(F)c(F)c([C@@]3(C)N=C(N)S[C@@]4(CO)C[C@H]43)c2)cn1
Task for the reader: decide whether A or B has the larger IC50. Please respond with the label that marks your chosen entry.
B

====

- Tested Target: Recombinant Cat D (Homo sapiens (Human))
- Assay Remarks: In vitro enzymatic Cathepsin D (Cat D) FRET assay
- Assay type: biochemical
- Cond: Cathepsin D FRET enzyme assay; read-out: IC50 IP (μM) CatD
Experimental Readout: IC50 (µM)

1) COC[C@]12C[C@H]1[C@@](CF)(c1cc(NC(=O)c3ccc(Cl)cn3)cc(F)c1F)N=C(N)S2 [Example 43]	755
2) C#CCOc1ccc(C(=O)Nc2cc(F)c(F)c([C@@]3(C)N=C(N)S[C@@]4(CO)C[C@H]43)c2)nc1 [Example 71]	329
3) Cc1cc(Cl)cnc1C(=O)Nc1cc(F)c(F)c([C@@]2(C)N=C(N)S[C@H]3C[C@H]32)c1 [Example 8]	418

[1] C[C@]1(c2cc(Nc3ncnc4cc(C#N)cnc34)cc(F)c2F)N=C(N)S[C@H]2C[C@H]21 [Example 36]
[2] NC1=N[C@](CF)(c2cc(NC(=O)c3ccc(Cl)cn3)cc(F)c2F)[C@@H]2C[C@@H]2S1 [Example 18]
[3] C[C@]1(c2cc(NC(=O)c3ccc(Cl)cn3)cnc2F)N=C(N)S[C@@]2(CF)C[C@H]21 [Example 98]
[4] N#Cc1cnc2c(Nc3ccc(F)c([C@@]4(CF)N=C(N)S[C@@]5(CF)C[C@H]54)c3)ncnc2c1 [Example 97]
[5] COC(=O)[C@]12C[C@H]1[C@@](C)(c1cc(NC(=O)c3ccc(Cl)cn3)cnc1F)N=C(N)S2 [Example 99]
List by increasing IC50. Arrange the labels as the request states and list them.
2, 1, 4, 5, 3
(2: 34.3 µM, 1: 250 µM, 4: 752 µM, 5: 1130 µM, 3: 3140 µM)

====

- Tested Target: human recombinant BACE2 (Homo sapiens (Human))
- Sequence (Q9Y5Z0 63-518): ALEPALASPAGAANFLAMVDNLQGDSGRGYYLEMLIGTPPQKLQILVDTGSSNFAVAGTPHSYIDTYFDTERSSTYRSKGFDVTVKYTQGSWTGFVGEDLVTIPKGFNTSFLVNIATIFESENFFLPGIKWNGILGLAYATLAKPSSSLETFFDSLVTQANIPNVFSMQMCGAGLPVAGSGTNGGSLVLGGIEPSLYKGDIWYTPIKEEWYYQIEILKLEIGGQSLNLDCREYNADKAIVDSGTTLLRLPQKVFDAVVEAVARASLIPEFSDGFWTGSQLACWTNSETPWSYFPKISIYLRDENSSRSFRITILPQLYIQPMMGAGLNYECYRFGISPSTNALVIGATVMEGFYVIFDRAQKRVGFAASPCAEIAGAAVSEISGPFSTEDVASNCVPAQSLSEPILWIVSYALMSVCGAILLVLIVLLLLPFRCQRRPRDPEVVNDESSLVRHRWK
- Assay Remarks: In vitro enzymatic BACE2 FRET assay
- Type: biochemical
- Cond: read-out: IC50 IP (μM) BACE2 enzyme
Experimental Readout: IC50 (µM)

1) C[C@]1(c2cc(Nc3nccc4nc(OCc5ncco5)cnc34)ccc2F)N=C(N)S[C@]2(CO)[C@H]1C2(F)F	0.0184
2) C[C@]1(c2cc(NC(=O)c3cnc(OCC(F)(F)C(F)F)cn3)ccc2F)N=C(N)S[C@]2(CO)[C@H]1C2(F)F	0.107
3) C[C@]1(c2cc(NC(=O)c3cnc(OCC(F)(F)F)cn3)ccc2F)N=C(N)S[C@@]2(CF)C[C@H]21	0.0778

[I] C#CCOc1cnc(C(=O)Nc2ccc(F)c([C@@]3(C)N=C(N)S[C@]4(CO)[C@H]3C4(F)F)c2)cn1
[II] COC[C@]12C[C@H]1[C@@](C)(c1cc(NC(=O)c3ncc(O[C@H](C)c4ncco4)cc3C)cc(F)c1F)N=C(N)S2
[III] CNC(=O)[C@]12C[C@H]1[C@@](C)(c1cc(NC(=O)c3cnc(OCC(F)(F)F)cn3)ccc1F)N=C(N)S2
[IV] C[C@]1(c2cc(Nc3nccc4nc(OCc5ncco5)cnc34)cnc2F)N=C(N)S[C@@]2(C(F)F)C[C@@H]12
Sort ascending by IC50. Give the order by naming the labels one after another as requested.
I, IV, III, II

[1] Cc1cc(OCC(F)(F)F)cnc1C(=O)Nc1ccc(F)c([C@@]2(C)N=C(N)S[C@@]3(C(F)F)C[C@@H]23)c1
[2] CC(=O)[C@]12C[C@H]1[C@@](C)(c1cc(Nc3ncnc4cc(C#N)cnc34)cc(F)c1F)N=C(N)S2
Which value of IC50 is smaller, the one for 1 or the one for 2 ? I would appreciate it if you answered with the label of your choice.
2

====

- Tested Target: human recombinant BACE1 (Homo sapiens (Human))
- Sequence (P56817 46-501): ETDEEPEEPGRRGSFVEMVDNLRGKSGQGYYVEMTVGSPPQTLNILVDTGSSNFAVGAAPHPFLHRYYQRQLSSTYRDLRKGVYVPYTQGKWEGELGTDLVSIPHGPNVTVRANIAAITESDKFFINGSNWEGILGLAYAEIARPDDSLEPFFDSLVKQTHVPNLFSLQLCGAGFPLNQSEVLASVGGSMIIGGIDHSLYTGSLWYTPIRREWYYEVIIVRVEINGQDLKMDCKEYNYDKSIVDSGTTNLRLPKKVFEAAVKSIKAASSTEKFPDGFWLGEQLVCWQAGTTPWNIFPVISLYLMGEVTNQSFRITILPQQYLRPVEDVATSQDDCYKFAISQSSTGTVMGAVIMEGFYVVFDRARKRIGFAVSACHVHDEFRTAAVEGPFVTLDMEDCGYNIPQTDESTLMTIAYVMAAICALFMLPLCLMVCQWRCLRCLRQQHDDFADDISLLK
- Assay Remarks: In vitro enzymatic BACE1 FRET assay
- Format: biochemical
- Cond: read-out: IC50 IP (μM) BACE1 enzyme
Experimental Readout: IC50 (µM)

// below: answered compounds
1) COCCOc1cnc2c(Nc3ccc(F)c([C@@]4(CF)N=C(N)S[C@@]5(COC)C[C@H]54)c3)ncnc2c1	0.0282
2) Cc1cc(NC(=O)c2cnc(OCc3ncco3)cn2)cc([C@@]2(C)N=C(N)S[C@@]3(C(F)F)C[C@@H]23)c1F	0.00057
3) COC[C@]12C[C@H]1[C@@](C)(c1cc(NC(=O)c3ncc(OCc4ncco4)cc3C)cc(F)c1F)N=C(N)S2	0.00656
4) Cc1noc(COc2cnc(C(=O)Nc3cc(C)c(F)c([C@@]4(C)N=C(N)S[C@@]5(C(F)F)C[C@@H]45)c3)cn2)n1	0.00152

[I] CCNC(=O)[C@]12C[C@H]1[C@@](C)(c1cc(NC(=O)c3cnc(OCC(F)(F)F)cn3)ccc1F)N=C(N)S2
[II] COC[C@]12C[C@H]1[C@@](C)(c1cc(NC(=O)c3cnc(OCC(F)(F)C(F)F)cn3)cc(F)c1F)N=C(N)S2
[III] C[C@]1(c2cc(Nc3ncnc4cc(C#N)cnc34)cc(F)c2F)N=C(N)S[C@@]2(CF)C[C@H]21
Ascending by IC50, please: list the compounds accordingly. Put the labels in the order asked and list them.
I, II, III
(I: 0.000782 µM, II: 0.00173 µM, III: 0.00613 µM)

[I] C[C@]1(c2cc(Nc3nccc4nc(OCc5cocn5)cnc34)ccc2F)N=C(N)S[C@]2(CO)[C@H]1C2(F)F
[II] NC1=N[C@](CF)(c2cc(NC(=O)c3ccc(Cl)cn3)ccc2F)[C@@H]2C[C@]2(c2c[nH]nn2)S1
Dear colleague, could you let me know whether I or II has the lower recorded IC50? Thanks. Answer = label.
II

[P] C#CCOc1cnc2c(Nc3ccc(F)c([C@@]4(CF)N=C(N)S[C@@]5(C(=O)N(C)C)C[C@H]54)c3)nccc2n1
[Q] COC[C@]12C[C@H]1[C@@](C)(c1cc(Nc3nccc4nc(OCc5ncccn5)cnc34)cc(F)c1F)N=C(N)S2
Compare P and Q by numeric IC50 and name the larger one. Could you answer with the label of the item you picked?
Q

====

- Tested Target: human recombinant BACE2 (Homo sapiens (Human))
- Assay Remarks: In vitro enzymatic BACE2 FRET assay
- Type: biochemical
- Cond: read-out: IC50 IP (μM) BACE2 enzyme
Experimental Readout: IC50 (µM)

[A] COC[C@H](C)Oc1cnc(C(=O)Nc2cc(F)c(F)c([C@@]3(C)N=C(N)S[C@@]4(COC)C[C@H]43)c2)cn1 [Example 1024]
[B] C#C[C@H](C)Oc1cnc(C(=O)Nc2ccc(F)c([C@@]3(C)N=C(N)S[C@@]4(C(=O)NC5CC5)C[C@H]43)c2)cn1 [Example 993]
Please choose the item with the lower IC50 value from this pair: A and B Output the label that corresponds to your choice.
B

[I] C#C[C@H](C)Oc1cnc(C(=O)Nc2ccc(F)c([C@@]3(C)N=C(N)S[C@@]4(C(F)F)C[C@@H]34)c2)cn1 [Example 966]
[II] C#CCOc1cnc2c(Nc3ccc(F)c([C@@]4(C)N=C(N)S[C@]5([C@@H](C)O)[C@H]4C5(F)F)c3)nccc2n1 [Example 713]
Compare I and II by numeric IC50 and name the larger one. Selection: enter the item's label.
I
(I: 0.0419 µM, II: 0.00394 µM)

[1] COC[C@H](C)Oc1cnc2c(Nc3cc(F)c(F)c([C@@]4(C)N=C(N)S[C@@]5(C(F)F)C[C@@H]45)c3)nccc2n1 [Example 894]
[2] C#CCOc1cnc(C(=O)Nc2cnc(OC)c([C@@]3(C)N=C(N)S[C@@]4(C#N)C[C@H]43)c2)cn1 [Example 964]
[3] Cc1cnnn1C[C@]12C[C@H]1[C@@](CF)(c1cc(NC(=O)c3ccc(Cl)cn3)ccc1F)N=C(N)S2 [Example 725]
[4] C#CCOc1cnc(C(=O)Nc2cc(F)c(F)c([C@@]3(C)N=C(N)S[C@@]4(CNC(C)=O)C[C@H]43)c2)cn1 [Example 1042]
Sort (4 compounds) by IC50: min first. Labels, requested order.
3, 2, 4, 1
